Recorded values, source patent US11149016B2.

Tested on: mice with memory disorders caused by scopolamine
Assay: Passive avoidance (darkroom) test in mice with scopolamine-injured memory
Assay type: in vivo, ICR mice
Conditions: tested materials 80 mg/kg, intragastric, 7 days; scopolamine 3 mg/kg 20 minutes before testing; time of first entry into darkroom; x ± s, n = 10
Provide the recorded Latency (s) of entering the darkroom for the entries that follow.
Output spec: scalar in s, unitless text.

Enquiry: Which Latency (s) of entering the darkroom value is on record for C#CCSCC(N)C(=O)Oc1ccc(CO)cc1 (stereo not drawn) [Vc] ?
Return: 66.8

Enquiry: Which Latency (s) of entering the darkroom value is on record for C#CCSCC(N)C(=O)Oc1ccc(-c2cc(=S)ss2)cc1 (stereo not drawn) [Va] ?
Return: 55.8

Enquiry: Which Latency (s) of entering the darkroom value is on record for C#CCSCC(N)C(=O)OCCCC[N+](=O)[O-] (stereo not drawn) [Vf] ?
Return: 60.2

Enquiry: Which Latency (s) of entering the darkroom value is on record for C#CCSC[C@H](N)C(=O)O [SPRC, S-propargyl-cysteine, reference compound] ?
Return: 50.5

Enquiry: Which Latency (s) of entering the darkroom value is on record for C#CCSCC(N)C(=O)OCc1ccc(OC(=O)C(N)CSCC#C)cc1 (stereo not drawn) [Vd] ?
Return: 63.6

Enquiry: Which Latency (s) of entering the darkroom value is on record for C#CCSCC(N)C(=O)Oc1ccc(C=O)cc1 (stereo not drawn) [Vb] ?
Return: 53.2
